Just for reference, patent US12478081B2 is where these values come from.

Experiment: Thermal stability of compounds at 60° C. (HPLC content of raw material and 2% premix)
Type: physicochemical
Conditions: 2% premix, Day 10, relative to Day 0
MEASUREMENT_KIND: Detection result of the content of test sample (%) Day 10
Please reply with the bare figure in % and do not write the unit itself.

Solved entries (count: 3):
[
  {
    "MOLECULE": "NCCCCCCCCCCCCCC(=O)NC(CC(=O)O)C(=O)O (racemic) [Compound 11, N-(14-aminomyristoyl)-DL-aspartic acid]",
    "READOUT_UNITS": "%",
    "NUMERIC_VALUE": 97.80
  },
  {
    "MOLECULE": "NC(=O)NC(CC(=O)[O-])C(=O)[O-].[Fe+2] (racemic) [Compound 7, Iron N-carbamoyl-DL-aspartate]",
    "READOUT_UNITS": "%",
    "NUMERIC_VALUE": 94.98
  },
  {
    "MOLECULE": "NC(=O)NC(CC(=O)[O-])C(=O)[O-].[Na+].[Na+] (racemic) [Compound 3, Sodium N-carbamoyl-DL-aspartate]",
    "READOUT_UNITS": "%",
    "NUMERIC_VALUE": 99.21
  }
]

As a next step, examine the molecule that follows.
Enquiry: Requested field: Detection result of the content of test sample (%) Day 10. Item: NC(=O)NC(CC(=O)O)C(=O)O (racemic) [Compound 1, N-carbamoyl-DL-aspartic acid]
Return: 99.70

====

Detection result of the content of test sample (%) Day 5 listing for selected compounds.
Assay: Thermal stability of compounds at 60° C. (HPLC content of raw material and 2% premix)
Format: physicochemical
Conditions: 2% premix, Day 5, relative to Day 0
Please reply with the bare figure in % and do not write the unit itself.

Solved entries (count: 5):
[
  {
    "COMPOUND": "NCCCCCCCCCC(=O)NC(CC(=O)O)C(=O)O (racemic) [Compound 10, N-(10-aminodecanoyl)-DL-aspartic acid]",
    "READOUT_UNITS": "%",
    "NUMERIC_VALUE": 98.55
  },
  {
    "COMPOUND": "NC(=O)NC(CC(=O)[O-])C(=O)[O-].[Cu+2] (racemic) [Compound 6, Copper N-carbamoyl-DL-aspartate]",
    "READOUT_UNITS": "%",
    "NUMERIC_VALUE": 98.28
  },
  {
    "COMPOUND": "NC(=O)NC(CC(=O)O)C(=O)O (racemic) [Compound 1, N-carbamoyl-DL-aspartic acid]",
    "READOUT_UNITS": "%",
    "NUMERIC_VALUE": 99.66
  },
  {
    "COMPOUND": "NCCCC(=O)NC(CC(=O)O)C(=O)O (racemic) [Compound 9, N-(4-aminobutyryl)-DL-aspartic acid]",
    "READOUT_UNITS": "%",
    "NUMERIC_VALUE": 99.41
  },
  {
    "COMPOUND": "CCOC(=O)CC(NC(N)=O)C(=O)OCC (racemic) [Compound 2, diethyl N-carbamoyl-DL-aspartate]",
    "READOUT_UNITS": "%",
    "NUMERIC_VALUE": 98.81
  }
]

Enquiry: Requested field: Detection result of the content of test sample (%) Day 5. Item: NCCCCCCCCCCCCCC(=O)NC(CC(=O)O)C(=O)O (racemic) [Compound 11, N-(14-aminomyristoyl)-DL-aspartic acid]
Return: 98.22

Enquiry: Requested field: Detection result of the content of test sample (%) Day 5. Item: NC(=O)NC(CC(=O)[O-])C(=O)[O-].[Ca+2] (racemic) [Compound 4, Calcium N-carbamoyl-DL-aspartate]
Return: 98.93

Enquiry: Requested field: Detection result of the content of test sample (%) Day 5. Item: NCC(=O)NC(CC(=O)O)C(=O)O (racemic) [Compound 8, N-glycyl-DL-aspartic acid]
Return: 98.57

====

Test system: grass carps
Assay: Use of aspartic acid derivatives in feeds for fish (grass carp breeding test)
Type: in vivo
Conditions: grass carps, 3000 ppm in feed, 8 weeks
Marks after values point to notes of the source that are not given here.
FCR listing for selected compounds.

[
  {
    "COMPOUND": "CCOC(=O)CC(NC(N)=O)C(=O)OCC (racemic) [Compound 2, diethyl N-carbamoyl-DL-aspartate]",
    "ASSAYED_TARGET": "grass carps",
    "FCR": "1.650 ± 0.008^b"
  },
  {
    "COMPOUND": "NCCCCCCCCCC(=O)NC(CC(=O)O)C(=O)O (racemic)",
    "ASSAYED_TARGET": "grass carps",
    "FCR": "1.653 ± 0.009^b"
  }
]

Enquiry: Missing value: FCR, grass carps, entry NCCCCCCCCCCCCCC(=O)NC(CC(=O)O)C(=O)O (racemic) . Fill in?
Return: 1.671 ± 0.008^b

====

Detection result of the content of test sample (%) Day 5 listing for selected molecules.
Assay: Thermal stability of compounds at 60° C. (HPLC content of raw material and 2% premix)
Format: physicochemical
Settings: Raw material, Day 5, relative to Day 0
Please reply with the bare figure in % and do not write the unit itself.

[
  {
    "MOLECULE": "NCCCCCCCCCC(=O)NC(CC(=O)O)C(=O)O (racemic)",
    "NUMERIC_VALUE": 99.00
  },
  {
    "MOLECULE": "NCC(=O)NC(CC(=O)O)C(=O)O (racemic)",
    "NUMERIC_VALUE": 99.78
  },
  {
    "MOLECULE": "NC(=O)NC(CC(=O)[O-])C(=O)[O-].[Na+].[Na+] (racemic) [Compound 3, Sodium N-carbamoyl-DL-aspartate]",
    "NUMERIC_VALUE": 103.02
  },
  {
    "MOLECULE": "NCCCC(=O)NC(CC(=O)O)C(=O)O (racemic)",
    "NUMERIC_VALUE": 98.46
  },
  {
    "MOLECULE": "NC(=O)NC(CC(=O)[O-])C(=O)[O-].[Zn+2] (racemic) [Compound 5, Zinc N-carbamoyl-DL-aspartate]",
    "NUMERIC_VALUE": 99.76
  }
]

Enquiry: Requested field: Detection result of the content of test sample (%) Day 5. Item: NC(=O)NC(CC(=O)[O-])C(=O)[O-].[Ca+2] (racemic) [Compound 4, Calcium N-carbamoyl-DL-aspartate]
Return: 101.54

Enquiry: Requested field: Detection result of the content of test sample (%) Day 5. Item: NC(=O)NC(CC(=O)[O-])C(=O)[O-].[Cu+2] (racemic) [Compound 6, Copper N-carbamoyl-DL-aspartate]
Return: 99.91

Enquiry: Requested field: Detection result of the content of test sample (%) Day 5. Item: NC(=O)NC(CC(=O)O)C(=O)O (racemic)
Return: 99.79

Enquiry: Requested field: Detection result of the content of test sample (%) Day 5. Item: CCOC(=O)CC(NC(N)=O)C(=O)OCC (racemic) [Compound 2, diethyl N-carbamoyl-DL-aspartate]
Return: 97.32

Enquiry: Requested field: Detection result of the content of test sample (%) Day 5. Item: NC(=O)NC(CC(=O)[O-])C(=O)[O-].[Fe+2] (racemic) [Compound 7, Iron N-carbamoyl-DL-aspartate]
Return: 97.63

Enquiry: Requested field: Detection result of the content of test sample (%) Day 5. Item: NCCCCCCCCCCCCCC(=O)NC(CC(=O)O)C(=O)O (racemic)
Return: 97.61

====

Test system: grass carps
Test: Use of aspartic acid derivatives in feeds for fish (grass carp breeding test)
Format: in vivo
Settings: grass carps, 3000 ppm in feed, 8 weeks
Marks after values point to notes of the source that are not given here.
Average final weight (g) listing for selected compounds.

Solved entries (count: 5):
[
  {
    "COMPOUND": "NCCCCCCCCCCCCCC(=O)NC(CC(=O)O)C(=O)O (racemic)",
    "ASSAYED_TARGET": "grass carps",
    "Average final weight (g)": "769.2 ± 4.5^ab g"
  },
  {
    "COMPOUND": "NCCCC(=O)NC(CC(=O)O)C(=O)O (racemic)",
    "ASSAYED_TARGET": "grass carps",
    "Average final weight (g)": "781.8 ± 4.4^b g"
  },
  {
    "COMPOUND": "CCOC(=O)CC(NC(N)=O)C(=O)OCC (racemic) [Compound 2, diethyl N-carbamoyl-DL-aspartate]",
    "ASSAYED_TARGET": "grass carps",
    "Average final weight (g)": "772.0 ± 6.3^b g"
  },
  {
    "COMPOUND": "NCCCCCCCCCC(=O)NC(CC(=O)O)C(=O)O (racemic)",
    "ASSAYED_TARGET": "grass carps",
    "Average final weight (g)": "781.0 ± 5.1^b g"
  },
  {
    "COMPOUND": "NCC(=O)NC(CC(=O)O)C(=O)O (racemic)",
    "ASSAYED_TARGET": "grass carps",
    "Average final weight (g)": "778.2 ± 4.3^b g"
  }
]

As a next step, examine the compound that follows.
Enquiry: Missing value: Average final weight (g), grass carps, entry NC(=O)NC(CC(=O)O)C(=O)O (racemic) . Fill in?
Return: 774.5 ± 4.8^b g
